assayInfo: Metabolic stability in Crj:CD(SD) rat liver microsomes assessed as compound remaining at 2 uM incubated for 30 mins by LC/MS/MS analysis
Type: ADME, Microsome
conditionDetails: read-out: Stability
reportedEndpoint: remaining at 0.5 h, 2 µM (%)
Answers are plain numbers, in %.

Worked cases, answers included:
>>> print(df.to_string())
                            structuresmiles  resultunits  quantitativereadout
0  O=C1c2c(O)c(=O)ccn2N(C(c2ccccc2)c2ccccc2)CN1Cc1ccco1            %                 50.6
1  COCCN1C[C@H](C(c2ccccc2)c2ccccc2)n2ccc(=O)c(O)c2C1=O            %                 79.7
2  CC(C)N1CN(C(c2ccccc2)c2ccccc2)n2ccc(=O)c(O)c2C1=O            %                   86

Would you mind giving remaining at 0.5 h, 2 µM for every compound in the list below?
1. CN1CN(C(c2ccccc2)c2ccccc2)n2ccc(=O)c(O)c2C1=O
2. CC(C)N1C[C@H](C(c2ccccc2)c2ccccc2)n2ccc(=O)c(O)c2C1=O
3. COCCN1CN(C(c2ccccc2)c2ccccc2)n2ccc(=O)c(O)c2C1=O
4. CN1C[C@H](C(c2ccccc2)c2ccccc2)n2ccc(=O)c(O)c2C1=O

[92.1, 78.7, 83.4, 79.9]

---

assayInfo: Protein binding in rat serum assessed as unbound fraction after 24 hrs by LC-MS based equilibrium dialysis analysis
Type: ADME, cell-free
Mark each entry Met if its fraction unbound at 24 h sits below 0.2, and Not met for all others.

# example entries with known answers
>>> print(df.to_string())
                            structuresmiles  labelvalue
0  CN1CN(C(c2ccccc2)c2ccccc2)n2ccc(=O)c(O)c2C1=O         Met
1  CC(C)N1CN(C(c2ccccc2)c2ccccc2)n2ccc(=O)c(O)c2C1=O         Met
2  COCCN1CN(C(c2ccccc2)c2ccccc2)n2ccc(=O)c(O)c2C1=O         Met
3  CC(C)N1C[C@H](C(c2ccccc2)c2ccccc2)n2ccc(=O)c(O)c2C1=O         Met
4  O=C1c2c(O)c(=O)ccn2N(C(c2ccccc2)c2ccccc2)CN1Cc1ccco1         Met
5  CN1C[C@H](C(c2ccccc2)c2ccccc2)n2ccc(=O)c(O)c2C1=O     Not met

Now look at this one.
Say whether its fraction unbound at 24 h is strictly beneath 0.2. Entry: COCCN1C[C@H](C(c2ccccc2)c2ccccc2)n2ccc(=O)c(O)c2C1=O
Not met

---

Tested on: Influenza A virus
Type: functional, organism-based
conditionDetails: A/WSN/1933(H1N1), MDCK, 72 h
pEC50: −log10 of the molar value.
Label yes (1) when pEC50 >= 6; otherwise no (0).

# example entries with known answers
In [3]: df
Out[3]:
                            structuresmiles       testedtarget  labelvalue
0  COCCN1C[C@H](C(c2ccccc2)c2ccccc2)n2cc(Cl)c(=O)c(O)c2C1=O  Influenza A virus     yes (1)
1  COCCN1CN(C(c2ccccc2)c2ccccc2)n2ccc(=O)c(O)c2C1=O  Influenza A virus     yes (1)
2  COCCN1C[C@H](C(c2ccccc2)c2ccccc2)n2cc(OC)c(=O)c(O)c2C1=O  Influenza A virus      no (0)
3  O=C(O)/C(O)=C/C(=O)C1(Cc2ccc(Cl)cc2)CCN(Cc2ccccc2)CC1  Influenza A virus      no (0)
4  CC(C)N1C[C@H](C(c2ccccc2)c2ccccc2)n2ccc(=O)c(O)c2C1=O  Influenza A virus     yes (1)

Now look at this one.
I'd appreciate it if you could say whether COCCN1C[C@H](C(c2ccccc2)c2ccccc2)n2cc(N)c(=O)c(O)c2C1=O has pEC50 at least equal to 6.
no (0)
